tested on: Saccharomyces cerevisiae; assay: protein stability index of tFT-peptide fusion (C-terminal peptide) (PSI (0-1 scale)); higher = more stable (slower turnover); settings: genetic background: wild type; temperature: 30 C
# protein stability index values compiled below
Please give the numeric answer without any surrounding text.

Can you look up the measured protein stability index of KKNEKKNRKKKN for me?
0.71

Thanks! And PHFLLLEDRPQT ?
0.705

Thanks! And RPRTSLFPCSLP ?
0.711

###

# protein stability index values compiled below
tested on: Saccharomyces cerevisiae; test: protein stability index of tFT-peptide fusion (C-terminal peptide) (PSI (0-1 scale)); higher = more stable (slower turnover); details: genetic background: wild type; temperature: 30 C;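 further: PSI is a weighted mean of sequencing reads over stability bins, variants kept only with over 10 reads, mCherry proximal and sfGFP distal, peptide attached via GGGS linker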
Please give the numeric answer without any surrounding text.

Example results:
VGNGGVWSVGRG    0.685
TSPTIPSTPFSN    0.704
GGILSRVFFLCG    0.679
TYTPQVSSVFPI    0.698
SGRVRPNSRASP    0.698
PPPHPHPFSLAL    0.691
PVPSPLLPSFSL    0.715
GVGQEGVGGRAV    0.707

What measured protein stability index is associated with CFFNAASHSTYE on Saccharomyces cerevisiae?
0.703

Thanks! And KKKNTRKTTNIK ?
0.708

Thanks! And ERMVENNVKGRK ?
0.681
